experiment.notes: Selectivity index, ratio of CC50 for cytotoxicity against human MT4 cells to EC50 for antiviral activity against wildtype HIV-1 3B infected in human MT4 cells
Format: toxicity, cell-based
setup.conditions: read-out: Ratio CC50/EC50
Assign selectivity ratio to each entry below.
Provide a numeric answer; units are not to be included.

-- ask Reported selectivity ratio, compound Cc1cc(C)cc(S(=O)(=O)c2c(C(=O)NC3CC4(CCNCC4)C3)[nH]c3ccc(Cl)cc23)c1 : ____
-- reply 493

-- ask And the next one, Cc1cc(C)cc(S(=O)(=O)c2c(C(N)=O)[nH]c3ccc(Cl)cc23)c1 ?
-- reply 2160

-- ask And the next one, Cc1cc(C)cc(S(=O)(=O)c2c(C(=O)NC3CC4(CCN(C(=O)OC(C)(C)C)CC4)C3)[nH]c3ccc(Cl)cc23)c1 ?
-- reply 685

-- ask And the next one, Cc1cc(C)cc(S(=O)(=O)c2c(C(=O)NC3CC4(CCN(S(C)(=O)=O)C4)C3)[nH]c3ccc(Cl)cc23)c1 (stereo not drawn) ?
-- reply 16500

-- ask And the next one, Cc1cc(C)cc(S(=O)(=O)c2c(C(=O)NC3CC4(CCN(Cc5n[nH]c(=O)n5C)CC4)C3)[nH]c3ccc(Cl)cc23)c1 ?
-- reply 8350

----------
experiment.notes: Cytotoxicity against human MT4 cells assessed as reduction in cell viability incubated for 5 to 7 days by MTT assay
Format: toxicity, cell-based
setup.conditions: time 5-7 day
Assign CC50 to each entry below.

-- ask Reported CC50, compound Cc1cc(C)cc(S(=O)(=O)c2c(C(=O)NC3CC4(CCN(Cc5n[nH]c(=O)n5C)C4)C3)[nH]c3ccc(Cl)cc23)c1 (configuration not stated) : ____
-- reply > 214 µM

-- ask And the next one, Cc1cc(C#N)cc(C)c1Oc1nc(Nc2ccc(C#N)cc2)nc(N)c1Br ?
-- reply > 4.59 µM

-- ask And the next one, O=C1Nc2ccc(Cl)cc2[C@@](C#CC2CC2)(C(F)(F)F)O1 ?
-- reply > 6.33 µM

-- ask And the next one, Cc1ccnc2c1NC(=O)c1cccnc1N2C1CC1 ?
-- reply > 15 µM

-- ask And the next one, Cc1cc(C)cc(S(=O)(=O)c2c(C(=O)NC3CC4(C3)CN(C(=O)OC(C)(C)C)C4)[nH]c3ccc(Cl)cc23)c1 ?
-- reply > 224 µM

-- ask And the next one, Cc1cc(C)cc(S(=O)(=O)c2c(C(=O)NC3CC4(CCN(S(C)(=O)=O)CC4)C3)[nH]c3ccc(Cl)cc23)c1 ?
-- reply > 222 µM

-- ask And the next one, Cc1cc(C)cc(S(=O)(=O)c2c(C(=O)NC3CC4(C3)CN(S(C)(=O)=O)C4)[nH]c3ccc(Cl)cc23)c1 ?
-- reply > 233 µM

----------
experiment.notes: Selectivity index, ratio of CC50 for cytotoxicity against human MT4 cells to EC50 for antiviral activity against wildtype HIV-1 3B infected in human MT4 cells
Assay type: toxicity, cell-based
setup.conditions: read-out: Ratio CC50/EC50
property.measured: selectivity ratio

-- ask Reported selectivity ratio, molecule Cc1cn([C@H]2C[C@H](N=[N+]=[N-])[C@@H](CO)O2)c(=O)[nH]c1=O : ____
-- reply > 352

-- ask And the next one, Cc1cc(C)cc(S(=O)(=O)c2c(C(=O)NC3CC4(CCN(S(C)(=O)=O)CC4)C3)[nH]c3ccc(Cl)cc23)c1 ?
-- reply > 10300

-- ask And the next one, Cc1cc(C)cc(S(=O)(=O)c2c(C(=O)NC3CC4(C3)CN(S(C)(=O)=O)C4)[nH]c3ccc(Cl)cc23)c1 ?
-- reply > 20900
